These data points were gathered from ChEMBL document CHEMBL1201862.

Test system: SK-MEL-5
measurement-protocol: NCI tumour cell line growth inhibition, 48 h
Activity calls are given as the source filed them. No stated cut-off is given here; in the data, active = GI50 up to about 1.1 µM and inactive = higher.
endpoint: GI50

Quickly give me recorded GI50 for CC1(O)CC(C(F)(F)F)(C(F)(F)F)OC1=O (centres undefined)
> 10 µM (inactive)

Quickly give me recorded GI50 for "CCCCCCCCCc1nn2c(Cc3ccccc3)nnc2s1"
15.9 µM (inactive)

Quickly give me recorded GI50 for "CCOc1ccc2[nH]c3c(C)c4cc[n+](C)cc4c(C)c3c2c1"
1.55 µM (inactive)

Quickly give me recorded GI50 for N#C[BH2-][n+]1cn(C2CC(OP(=O)(O)OCC3OC(n4cnc5c(=O)[nH]c(N)nc54)CC3O)C(CO)O2)c2nc(N)[nH]c(=O)c21 (centres undefined)
> 100 µM (inactive)
